tested on: MOLM-13; test: Antiproliferative activity against human MOLM13 cells after 72 hrs by WST-1 assay; format: functional; conditions: MOLM-13, 72 h
assay-readout: GI50 (nM)

> print(dat)
                    structure.smiles.string  reading
1  Oc1ccc(CCNc2ncc(-c3nnc(C4CC4)o3)c(Nc3ccccc3)n2)cc1       44

(P) c1ccc(Nc2nc(NCCc3ccncn3)ncc2-c2nnc(C3CC3)o2)cc1
(Q) CCCNc1nc(NCCc2ccncc2)ncc1-c1nnc(CN2CCC(N)CC2)o1
Compare P and Q by numeric GI50 and name the larger one. Refer to your chosen item by its label in the answer.
P

(I) CCOc1nc(NCCc2ccncc2)ncc1-c1nnc(C2CC2)o1
(II) Oc1ccc(Nc2nc(NCCc3ccncc3)ncc2-c2nnc(C3CC3)o2)cc1
Compare I and II by numeric GI50 and name the larger one. Refer to your chosen item by its label in the answer.
I
